# measuredTarget: FIH-Gln239 → Glu variant (human)
# assayName: other fluorescence titration
recordedMetric: pKd
Lab note: report pKd as minus log10 of the concentration in molar units, number only.

What value of pKd has been reported for the following binder? DESGLPQLTSYDAEVNAPIQGSRNLLQGEELLRALDQVN [39-mer CTAD peptide (C-terminal activation domain of human HIF1α, HIF1α 788–826, Cys800 → Ala)] 4.12
